Examples of compounds with documented MIC follow.
System: Aspergillus fumigatus
Experiment: Antimicrobial activity against Aspergillus fumigatus isolates
Type: functional
# unit: µg/mL | format: bare number

In the examples that follow, each entry is paired with its recorded MIC.
[
  {
    "COMPOUND": "CN(C/C=C/C#CC(C)(C)C)Cc1cccc2ccccc12 [TERBINAFINE]",
    "MIC / µg/mL": 0.0625
  },
  {
    "COMPOUND": "Cc1cccc(C(=O)Nc2ccc(-c3ccc(OCC(O)(Cn4cncn4)c4ccc(F)cc4F)cc3)cn2)c1 (stereo not given)",
    "MIC / µg/mL": 64
  },
  {
    "COMPOUND": "CNCC(=O)Nc1ccc(-c2ccc(OCC(O)(Cn3cncn3)c3ccc(F)cc3F)cc2)cn1 (stereo not given)",
    "MIC / µg/mL": 4
  }
]

Per the records, this compound ( COc1ccc(C(=O)Nc2ccc(-c3ccc(OCC(O)(Cn4cncn4)c4ccc(F)cc4F)cc3)cn2)cc1 (stereo not given) ) has MIC equal to 64

Query C[C@@H](c1ncncc1F)[C@](O)(Cn1cncn1)c1ccc(F)cc1F [VORICONAZOLE] yields MIC of 0.25
